Experiment: self-splicing fitness, log relative to wild type (ln ratio); higher = more splicing; Tetrahymena group I intron in knt gene, E. coli kanamycin selection, DiMSum; sequences stand for … in CUCUCU…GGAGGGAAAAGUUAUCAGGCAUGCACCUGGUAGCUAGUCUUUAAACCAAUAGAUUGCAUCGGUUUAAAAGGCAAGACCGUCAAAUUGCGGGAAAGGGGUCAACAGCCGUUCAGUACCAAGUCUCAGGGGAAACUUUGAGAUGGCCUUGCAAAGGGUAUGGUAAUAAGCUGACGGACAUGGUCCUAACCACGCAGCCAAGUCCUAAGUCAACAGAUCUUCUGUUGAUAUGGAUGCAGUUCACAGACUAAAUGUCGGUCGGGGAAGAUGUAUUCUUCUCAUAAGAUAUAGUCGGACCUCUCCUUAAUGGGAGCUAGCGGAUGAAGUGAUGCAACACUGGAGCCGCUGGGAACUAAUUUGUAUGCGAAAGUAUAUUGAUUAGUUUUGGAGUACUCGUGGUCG;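 note: selection with 25 µg/mL kanamycin versus none on LB agar overnight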
Settings: 30 °C
Cut-off -2 on self-splicing fitness (ln), inclusive. At or above means y; below means n.

PRIMARY_SEQUENCE: UAUUAGCAAUAUUACGGGCG
ASSIGNED_CLASS: y

PRIMARY_SEQUENCE: UACCAGCAAUAUUACGUGAA
ASSIGNED_CLASS: y

PRIMARY_SEQUENCE: AGAAAGCAAUAUUACGAUAA
ASSIGNED_CLASS: y

PRIMARY_SEQUENCE: CGUCAGCAAUAUUACGCUAA
ASSIGNED_CLASS: n

PRIMARY_SEQUENCE: CUAAAGCAAUAUUACGCAGG
ASSIGNED_CLASS: y

PRIMARY_SEQUENCE: GACGAGCAAUAUUACGCUAA
ASSIGNED_CLASS: n

PRIMARY_SEQUENCE: GAAGAGCAAUAUUACGUUUU
ASSIGNED_CLASS: n

PRIMARY_SEQUENCE: GGCAAGCAAUAUUACGAACU
ASSIGNED_CLASS: y

PRIMARY_SEQUENCE: UUGCAGCAAUAUUACGAGCA
ASSIGNED_CLASS: n

PRIMARY_SEQUENCE: AGCGAGCAAUAUUACGCAAA
ASSIGNED_CLASS: n

PRIMARY_SEQUENCE: GGGUAGCAAUAUUACGUGUA
ASSIGNED_CLASS: y

PRIMARY_SEQUENCE: AAUCAGCAAUAUUACGUUUG
ASSIGNED_CLASS: n

PRIMARY_SEQUENCE: CAGCAGCAAUAUUACGCAGG
ASSIGNED_CLASS: n

PRIMARY_SEQUENCE: AGUGAGCAAUAUUACGAGUG
ASSIGNED_CLASS: n

PRIMARY_SEQUENCE: ACCUAGCAAUAUUACGGACA
ASSIGNED_CLASS: y

PRIMARY_SEQUENCE: CUCCAGCAAUAUUACGCUUC
ASSIGNED_CLASS: n

PRIMARY_SEQUENCE: UUAGAGCAAUAUUACGCGUC
ASSIGNED_CLASS: n

PRIMARY_SEQUENCE: AACUAGCAAUAUUACGACGA
ASSIGNED_CLASS: y

PRIMARY_SEQUENCE: ACCUAGCAAUAUUACGCAUC
ASSIGNED_CLASS: y

PRIMARY_SEQUENCE: GCAAAGCAAUAUUACGUAGG
ASSIGNED_CLASS: y

PRIMARY_SEQUENCE: UGGUAGCAAUAUUACGAGUA
ASSIGNED_CLASS: y

PRIMARY_SEQUENCE: GUGAAGCAAUAUUACGAACC
ASSIGNED_CLASS: n

PRIMARY_SEQUENCE: AAGUAGCAAUAUUACGAACG
ASSIGNED_CLASS: y

PRIMARY_SEQUENCE: GCUUAGCAAUAUUACGCGUC
ASSIGNED_CLASS: y

PRIMARY_SEQUENCE: GACUAGCAAUAUUACGACUC
ASSIGNED_CLASS: y

PRIMARY_SEQUENCE: UGUUAGCAAUAUUACGGGAG
ASSIGNED_CLASS: n

PRIMARY_SEQUENCE: AUAUAGCAAUAUUACGUCUU
ASSIGNED_CLASS: y

PRIMARY_SEQUENCE: UGUGAGCAAUAUUACGGUAC
ASSIGNED_CLASS: n

PRIMARY_SEQUENCE: ACCGAGCAAUAUUACGAUGG
ASSIGNED_CLASS: n

PRIMARY_SEQUENCE: CGAAAGCAAUAUUACGGCAU
ASSIGNED_CLASS: n

PRIMARY_SEQUENCE: GAGAAGCAAUAUUACGUGGA
ASSIGNED_CLASS: n

PRIMARY_SEQUENCE: ACUUAGCAAUAUUACGUCCG
ASSIGNED_CLASS: n

PRIMARY_SEQUENCE: GUAUAGCAAUAUUACGUUAC
ASSIGNED_CLASS: n

PRIMARY_SEQUENCE: GGGAAGCAAUAUUACGUGGG
ASSIGNED_CLASS: n

PRIMARY_SEQUENCE: UAACAGCAAUAUUACGAUCG
ASSIGNED_CLASS: y

PRIMARY_SEQUENCE: AGAAAGCAAUAUUACGCGAG
ASSIGNED_CLASS: y

PRIMARY_SEQUENCE: UUUCAGCAAUAUUACGCGCA
ASSIGNED_CLASS: y

PRIMARY_SEQUENCE: UGAAAGCAAUAUUACGCUCG
ASSIGNED_CLASS: y

PRIMARY_SEQUENCE: GGGGAGCAAUAUUACGACAU
ASSIGNED_CLASS: n

PRIMARY_SEQUENCE: GCCCAGCAAUAUUACGCCGU
ASSIGNED_CLASS: y

PRIMARY_SEQUENCE: GUUUAGCAAUAUUACGCUGU
ASSIGNED_CLASS: y

PRIMARY_SEQUENCE: CCAAAGCAAUAUUACGUACA
ASSIGNED_CLASS: n

PRIMARY_SEQUENCE: GCGCAGCAAUAUUACGAUGU
ASSIGNED_CLASS: y

PRIMARY_SEQUENCE: UAAAAGCAAUAUUACGCACA
ASSIGNED_CLASS: y

PRIMARY_SEQUENCE: UUCAAGCAAUAUUACGGUGG
ASSIGNED_CLASS: y

PRIMARY_SEQUENCE: ACGAAGCAAUAUUACGCCGG
ASSIGNED_CLASS: y

PRIMARY_SEQUENCE: GCGCAGCAAUAUUACGCCUA
ASSIGNED_CLASS: y

PRIMARY_SEQUENCE: CCCUAGCAAUAUUACGUGCU
ASSIGNED_CLASS: n

PRIMARY_SEQUENCE: AAAAAGCAAUAUUACGGCAA
ASSIGNED_CLASS: y

PRIMARY_SEQUENCE: AUCAAGCAAUAUUACGAAGC
ASSIGNED_CLASS: n

PRIMARY_SEQUENCE: CAUGAGCAAUAUUACGCCAU
ASSIGNED_CLASS: n

PRIMARY_SEQUENCE: GCAAAGCAAUAUUACGUAUG
ASSIGNED_CLASS: n
